// provenance: the RepoRT retention time repository (doi:10.1007/s00216-021-03828-0)

Would you mind telling me the reported log10(LC retention time) of each entry?
Assay: RP, Merck Supelco Ascentis Express C18, 100 × 2.1 mm, 2 µm, 40 °C, 0.4 mL/min, estimated dead time 0.55 min; A: water + 0.1% formic acid, pH 3; B: acetonitrile + 0.1% formic acid, pH 3; gradient (min/%B) 0/5 2/5 17/99.9 20/99.9
Conditions: stereoisomer not certain
Friendly reminder: values = log10 of LC retention time, unit min.

The examples below pair each entry with its known result.
[
  {
    "compound": "CSCC[C@H](NC=O)C(=O)O [N-FORMYL-L-METHIONINE]",
    "observable": "log10(LC retention time)",
    "endpoint_value": 0.28
  },
  {
    "compound": "O=C(O)C(O)c1ccccc1 (stereo not given) [MANDELATE]",
    "observable": "log10(LC retention time)",
    "endpoint_value": 0.47
  },
  {
    "compound": "CC12CCC(=O)C=C1CCC1C2C(O)CC2(C)C1CCC2(O)C(=O)CO (stereo not given) [CORTISOL]",
    "observable": "log10(LC retention time)",
    "endpoint_value": 0.83
  },
  {
    "compound": "NC(Cc1cc(I)c(Oc2cc(I)c(O)c(I)c2)c(I)c1)C(=O)O (stereo not given) [THYROXINE]",
    "observable": "log10(LC retention time)",
    "endpoint_value": 0.89
  },
  {
    "compound": "CC(C)CC(N)C(=O)O (stereo not given) [LEUCINE]",
    "observable": "log10(LC retention time)",
    "endpoint_value": -0.13
  }
]

# batch size: 5; output log10(LC retention time) per entry
1. O=C(O)Cc1c[nH]c2ccc(O)cc12 [5-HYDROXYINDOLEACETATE]
2. O=C(O)c1ccc(=O)[nH]c1 [6-HYDROXYNICOTINATE]
3. Cc1ncc(CO)c(C(=O)O)c1O [4-PYRIDOXATE]
4. CC(O)(CC(=O)O)CC(=O)O [3-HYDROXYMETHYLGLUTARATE]
5. Nc1nc2ncc(CNc3ccc(C(=O)NC(CCC(=O)O)C(=O)O)cc3)nc2c(=O)[nH]1 (stereo not given) [FOLATE]

Ans.
1. 0.50
2. -0.10
3. -0.12
4. -0.11
5. 0.55

---

Would you mind telling me the reported log10 of LC retention time of each entry?
Assay: RP, Merck Supelco Ascentis Express C18, 100 × 2.1 mm, 2 µm, 40 °C, 0.4 mL/min, estimated dead time 0.55 min; A: water + 0.1% formic acid, pH 3; B: acetonitrile + 0.1% formic acid, pH 3; gradient (min/%B) 0/5 2/5 17/99.9 20/99.9
Conditions: stereoisomer not certain
Friendly reminder: values = log10 of LC retention time, unit min.

The examples below pair each entry with its known result.
[
  {
    "compound": "CCCCCC=CCC=CCCCCCCCC(=O)O [LINOLEATE]",
    "log10 of LC retention time": 1.12
  },
  {
    "compound": "O=C(O)CCCCC(=O)O [ADIPATE]",
    "log10 of LC retention time": 0.31
  },
  {
    "compound": "O=C(O)CCCCCCCCCCCO [OMEGA-HYDROXYDODECANOATE]",
    "log10 of LC retention time": 0.91
  },
  {
    "compound": "O=C(O)CCCCCCCCCO [10-HYDROXYDECANOATE]",
    "log10 of LC retention time": 0.82
  },
  {
    "compound": "Cc1cc2nc[nH]c2cc1C [5,6 DIMETHYLBENZIMIDAZOLE]",
    "log10 of LC retention time": 0.58
  }
]

Okay, next one:
Qu. Consider the compound Cc1ccc(O)c(O)c1 [4-METHYLCATECHOL] . State its measured log10 of LC retention time.
Ans. 0.09
